system: P388 leukemia ip, CD2F1 mice, survival T/C; test: NCI In Vivo Anticancer Drug Screen. Data for tumor model P388 Leukemia (intraperitoneal) in CD2F1 (CDF1) mice; settings: endpoint: median survival time; dose: 50.0 mg/kg/injection; schedule: Q01DX005 (ip); vehicle: saline with Tween-80; higher = longer survival
Toxic doses and inconclusive results are not listed. Peptide text beside a SMILES is read from it. * marks the point of attachment. Cbz = O=C(OCc1ccccc1)*
Measured attribute: T/C

State the recorded T/C for this entry: "O=C(NC(=O)c1c(F)cccc1F)Nc1ccc(C(O)(C(F)(F)F)C(F)(F)F)cc1"
102 % of control

Now this one: "C=CCOc1cc2c(cc1Cc1ccc3c(c1)OCO3)OCO2"
100 % of control

Check "CC(=O)CC(=NC(C)(C)C)Nc1ncc(Cl)c2ccccc12" too.
94 % of control

Can you handle "NS(=O)(=O)c1ccc(N=c2c3ccccc3n(-c3ccccc3)c3ccccc23)cc1" next?
102 % of control

And what about the compound "CCOc1cccc(/C=N\Nc2nc(=O)cc(C(=O)OC)s2)c1O" ?
97 % of control

Entry "COc1ccc(S(=O)(=O)N/N=C/c2ncc[nH]2)cc1" please
99 % of control

Next record, please: "Clc1ccccc1-c1nnc(-c2cccc(-c3nnc(-c4ccccc4Cl)s3)c2)s1"
91 % of control

Same read-out for "Cn1cnc2c(=O)[nH]c(N)nc21" ?
102 % of control

Next up: CC1/C=C/C=C/CC/C=C/C=C/C=C/C=C/C(OC2OC(C)C(O)C(N)C2O)CC2OC(CC(O)C(O)CCC(O)CC(O)CC(O)CC(=O)OC(C)C(C)C1O)CC(O)C2C(=O)O (configuration not stated)
95 % of control

How about this compound: C=Cc1ccc(NC(=O)CC2SC(=O)NC2=O)cc1 (configuration not stated)
103 % of control

Repeat for the following compound: "CN(C)CCC(=O)C1CC1"
92 % of control

Try the compound O=C1CC2c3ccccc3CCN2C2=C1CCC2 (configuration not stated)
96 % of control

Likewise for "C=C(c1ccc(Cl)cc1)c1ccc(OC)c(OC)c1" ?
94 % of control

Another: CCOC(=O)C1(C)C(=O)CC(c2ccccc2)CC1c1ccccc1 (configuration not stated)
100 % of control

Input "Cc1nn(C)c(=S)[nH]c1=O"
105 % of control

Next compound up: CCC(C)n1c(C)nc2c(N)cc(C(F)(F)F)cc21 (configuration not stated)
97 % of control

Please do the same for "COC(=O)N1[C@@H]2C=CC=CC=C2[C@@H](OC)N1C(=O)OC" as well.
101 % of control

Can you handle "c1ccc2c3c(cc(CNCCNCc4cc5c(c6ccccc46)CCCC5)c2c1)CCCC3" next?
87 % of control

O=C(NC(Cc1ccc(O)cc1)C(=O)NC(CO)C(=O)O)OCc1ccccc1 (stereo not drawn) (Cbz-Tyr-Ser-OH; configuration not given here) ?
101 % of control

Query CC(NNC(=S)N1CCCC1)c1cccc[n+]1[O-] (configuration not stated) next
101 % of control

Also Cc1[nH]nc2c1CC(c1ccccc1)NC2=O (configuration not stated) , if possible.
92 % of control

Do the same for "Cc1cc(Cl)ccc1NC(=O)C1C(=O)CC(C)(C)CC1=O" please
93 % of control

Now give it for "C=C(CSCCCCCCCCCCCC)C(=O)O" too.
116 % of control

Okay, and "COc1ccc(/C=C/C(C)=N/NC(N)=O)cc1OC" ?
102 % of control

Would you kindly repeat that for "NS(=O)(=O)c1ccc(N=c2c3ccccc3n(Cc3ccccc3)c3ccccc23)cc1" ?
88 % of control

Subsequent entry: "CCOC(=O)C(=CNc1cccc(N(C)C)c1)C(=O)OCC"
100 % of control

Queued: OCC1OC(n2cnc3c(I)ncnc32)C(O)C1O (configuration not stated)
100 % of control

Try "c1cc2c(c(-c3nccc4c3CCCC4)n1)CCCC2" next.
109 % of control

Here is the next compound: "CN(N=Nc1ccc(C#N)cc1)C(C)(C)C"
100 % of control

Try "CC(C)CN(CC(C)C)CN(CC(C)C)CC(C)C" next.
100 % of control

What do you have for "Clc1ccc(CN2CCCN(Cc3ccc(Cl)cc3)C2c2cc3ccccc3c3ccccc23)cc1" ?
99 % of control

Then "CCN(CC)CCOc1ccc(C)c(C)c1" ?
106 % of control

Same lookup for "COC(=O)c1c(C(=O)OC)c2c(C)nn3ccc1n23" , please.
96 % of control

Again, but for "Cc1nc2sc3c(c2c2ncnn12)CCCC3"
103 % of control

Then this compound: "N=C(N)c1ccc(NC(=O)c2ccc(C(=O)Nc3ccc(C(=N)N)cc3)c(N)c2)cc1"
110 % of control

Then what about the compound "O=[N+]([O-])c1ccc(SN2CCCCC2)c([N+](=O)[O-])c1" ?
100 % of control

Try "O=C1c2cccc3cccc(c23)C(=O)N1CCc1ccccn1" next.
107 % of control

These data points were gathered from PubChem BioAssay AID330.
